Test: soluble fraction after stress (log2 fold change); higher = more stays soluble; pooled small domains, quantitative proteomics;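 further: 20 min heating vs room temperature control held 20 min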
Details: stress: 75 degC
endpoint: soluble fraction (log2)

Here are 3 sequences together with their reported answers.
sequence_content=HMTKEEFLDEIKKELGFMPYEEVIKAEKYFESYFNGSEADEKVIERFGSPKYAAQNYYRTHVAN observed=0.029
sequence_content=HMGRLPMNIVRAIVEHLDRHASYSEINRATGASKGFISKVAAAVEAASLTPEKFLLLNDEDIQNRITPGR observed=-0.739
sequence_content=HMSQSYHLADRGQSLGTLDYQAVLVGLATGRLSPDTLSWQEGEAGWVALRQRPEFASGVSAVASL observed=0.404

Lookup: May I ask what soluble fraction (log2) has been recorded for HMDSPVLTAEIKALIDKELEQNAVKLATGLKKQRKRATDIHDALIRQGHEVSYRTVVRYIRNKTAQTS ?
Found: -0.751

Lookup: May I ask what soluble fraction (log2) has been recorded for HMRIYTKDEYLAELSRYLHKLPQDDYESAMAYFREYFEEAGPENEAQAMRDLGTPKEAASEILQNLLH ?
Found: -0.401

Lookup: May I ask what soluble fraction (log2) has been recorded for HMAYVDWYENKQPTHEEAFKKLLGRIHPGAIVLLHSTSKTNGEILDELLTKWEEMGYRFGTLDELTGN ?
Found: -1.58

Lookup: May I ask what soluble fraction (log2) has been recorded for HMSINISFEPADHLGKDVIFIRFPYDNEWIQRVRKLKGAKWSQSQRAWHVPDTEHYRTLFQLPQKI ?
Found: -2.73

Lookup: May I ask what soluble fraction (log2) has been recorded for HMKITLAESVYERIRRDIITNQLKPGEKINIRELSTRYEASETPIRLALNRLASENIIEHFPRQGMRVK ?
Found: -1.4

Lookup: May I ask what soluble fraction (log2) has been recorded for HMSNHYETLGVEQTASVDEIKKAYRRLSLQYHPDRNTTSDAVGKFQKINDAHEILSDKQSRTEYDMQLK ?
Found: 0.0273

Lookup: May I ask what soluble fraction (log2) has been recorded for HMEDHMVVFGKGGRITRLPDKATVLEYLDAANFFASRSSVVKVNGKLASLDQTLRDGDSIEIVD ?
Found: -0.407

Lookup: May I ask what soluble fraction (log2) has been recorded for HMFHDALVSFAERRVIFMKELVNRLNEARKAYYEGESIMSDKEYDNLYDKLVKMELTTGVVLPNSPTEEVG ?
Found: -1.33

Lookup: May I ask what soluble fraction (log2) has been recorded for HMVQVRQPAGAGDLFAKGRLHLSTGTIHTVKPLEVDLPKGRLTVVTGVSGSGKTTLILESLLPALAAAAA ?
Found: 0.377

Lookup: May I ask what soluble fraction (log2) has been recorded for HMSLLTPLEEARIVIEELIIPQKLTLDLLPQNSQIRKLQHEIINHYRLKGISIGDGKNRRVRIYS ?
Found: -0.204
